- PROTOCOL_NOTES: yeast display, Sf9 membrane polyspecificity reagent, FACS + sequencing; frameworks hold sequencing errors
ATTRIBUTE_MEASURED: polyreactivity (PSR sort gate)

>  <MONOMER_SEQUENCE>
QVQLVESGGGLVQAGGSLRLSCAASGLTFYYYAMGWYRQAPGKERELVARISSGTSTYYADSVKGRFTISRDNAKNTVYLQMNCMKPEDTAVYYCTARRKLGSTHGPWGGLEYWGEGTQVTVSS

>  <ATTRIBUTE_MEASURED>
polyreactivity (PSR sort gate)

>  <OBSERVED_VALUE>
low polyreactivity

$$$$
>  <MONOMER_SEQUENCE>
QVQLVESGGGLVQAGGSLRLSCAASGRTFYKNAMGWYRQAPGKERELVARISRGGSTNYADSVKGRFTISRDNAKNTVYLQMNSLKPEDTAVYYCAKEYGTHGKTYDYWGQGTQVTVSS

>  <ATTRIBUTE_MEASURED>
polyreactivity (PSR sort gate)

>  <OBSERVED_VALUE>
high polyreactivity

$$$$
>  <MONOMER_SEQUENCE>
QVQLVESGGGLVQAGGSLRLSCAASGSTFDSYAMGWYRQAPGKERELVAAISYNGSSTYYADSVKGRFTISRDNAKNTVYLQMNSLKPEDTAVYYCAAAPGFSAGHHDYWGQGTQVTVSS

>  <ATTRIBUTE_MEASURED>
polyreactivity (PSR sort gate)

>  <OBSERVED_VALUE>
low polyreactivity

$$$$
>  <MONOMER_SEQUENCE>
QVQLVESGGGLVQAGGSLRLSCAASGRTFKSNAMGWYRQAPGKERELVATINYSATSTYYADSVKGSFTISRDNAKNTVYLQMNSLKPEDTAVYYCNVACGYSYRGLDYWGQVTQVTVSS

>  <ATTRIBUTE_MEASURED>
polyreactivity (PSR sort gate)

>  <OBSERVED_VALUE>
high polyreactivity

$$$$
>  <MONOMER_SEQUENCE>
QDQLVESVGGLVQAGVSLRLSSASSGRTFWAYAMGWYRQAHGKERELVAAISRNGGSTYYADSVKGRFTISRDHAKNTVYLQMNSLKPEDTAVYYCAAESRYYYELGYWGQGTQVTVSS

>  <ATTRIBUTE_MEASURED>
polyreactivity (PSR sort gate)

>  <OBSERVED_VALUE>
high polyreactivity

$$$$
>  <MONOMER_SEQUENCE>
QVQLVESGGGLVQAGGSLRLSCAASGSTFWPYAMGWCRQAPGKERELVAAITWSGGRTYYADSVKGRFTISRDNAKNTVYLQMYSLKPEDTAVYYCAAYYRQGIAPNGFDYWGQGTQVTVSS

>  <ATTRIBUTE_MEASURED>
polyreactivity (PSR sort gate)

>  <OBSERVED_VALUE>
high polyreactivity

$$$$
>  <MONOMER_SEQUENCE>
QVQLVESGGGLVQAGGSLRLSCAASGRTFRYYAMGWYRQAPGKERELVAAISWDGARSYYADSVKGRFTISRDNAKNTVYLQMNSLKPEDTAVYYCAADFPGGTDRYYPMDYWGQGTQVTVSS

>  <ATTRIBUTE_MEASURED>
polyreactivity (PSR sort gate)

>  <OBSERVED_VALUE>
low polyreactivity

$$$$
>  <MONOMER_SEQUENCE>
QVQLVESGGGLVQAGGSLRLSCAASGSTFVQNAMGWYRQAPGKERELVAAISKSGGRTYYADSVKGRFTISRDNEKNTVYLQINSLNAEDTAVYYCARPYSRAYDYWGQGTQVTVSS

>  <ATTRIBUTE_MEASURED>
polyreactivity (PSR sort gate)

>  <OBSERVED_VALUE>
high polyreactivity

$$$$
>  <MONOMER_SEQUENCE>
QVQLVESGRGLVQAGGSLRLSCAASGLTFTPYAMGWYRQAPGKERELVAAITSGGRTYYADSVKGRFTSSRDNAKNTVYLQMNSLKPEDTAVYYCNADPEYSWWYYGLDYWGQGTQVTVSW

>  <ATTRIBUTE_MEASURED>
polyreactivity (PSR sort gate)

>  <OBSERVED_VALUE>
high polyreactivity

$$$$
>  <MONOMER_SEQUENCE>
QVQLVESGGGLVQAGGSLRLSCAASGSIFDIYGMGWYRQAPGKERELVASISGGAGSTNYADSVKGRFTISRDNAKNTVYLQMNSLNPEDTAVYYCAAEVYVPDYFQHKFDVEYEYWGQGTQVTVSS

>  <ATTRIBUTE_MEASURED>
polyreactivity (PSR sort gate)

>  <OBSERVED_VALUE>
low polyreactivity

$$$$
>  <MONOMER_SEQUENCE>
QVQLVESGGALVQAGGSLRLSCAASGSIFGFYMGWYRQAPGKERELVAAISGSGGNTYYADSVKGRFTISRDNAKNTVYLQMNSLKPEDTSVYYCAAERWDLWLLYDYWGQGTQVTVSS

>  <ATTRIBUTE_MEASURED>
polyreactivity (PSR sort gate)

>  <OBSERVED_VALUE>
high polyreactivity

$$$$
>  <MONOMER_SEQUENCE>
QVQLVESGGGLVQAGGSLRLSCAASGGIFERNDMGWYRQAPGKERELVAGISSVGSTNYADSVKGRFTISRDNAKNTVYLQMNSLKPEDTAVYYCAAGYSRAHDYWGQGTQVTVSS

>  <ATTRIBUTE_MEASURED>
polyreactivity (PSR sort gate)

>  <OBSERVED_VALUE>
low polyreactivity

$$$$
>  <MONOMER_SEQUENCE>
QDQLVESGGGLVQAGGSLGLSCAASGIIFYGYAMRWYRPAPGKERELVAAISRSGGSTYYADSVKGRFTISRDNAMNTVYLQMNSLKPEDTAVYYCAASGVTYDYWGQGTQVTVSS

>  <ATTRIBUTE_MEASURED>
polyreactivity (PSR sort gate)

>  <OBSERVED_VALUE>
high polyreactivity

$$$$
>  <MONOMER_SEQUENCE>
QVHLVDSAGGLVQAGGSLRLSCSASGSTFAVYAMGWYRQAPGKERELVAAISSSGDRTYYADSVKGRFTFSRDNAKNTVYLQMNILKPEDTAVYYCAVAIGYVYKTYYYWGQGTQVTVSS

>  <ATTRIBUTE_MEASURED>
polyreactivity (PSR sort gate)

>  <OBSERVED_VALUE>
high polyreactivity

$$$$
>  <MONOMER_SEQUENCE>
QVQLVESGGGLVQAGGSLRLSCAASGSTFGTNAMGWYRQAPGKERELVAAITKSGGSTYADSVKGRFTISRDNAKNTVYLQMNSLKPEDTAVYYCAAPNRYSVPMYYWGQGTQVTVSS

>  <ATTRIBUTE_MEASURED>
polyreactivity (PSR sort gate)

>  <OBSERVED_VALUE>
low polyreactivity

$$$$
>  <MONOMER_SEQUENCE>
QVQLVESGGGLVQAGGSLRLSCAASGRTFGWYSMGWYRQAPGKERELVAAINNSVDITYYSDSVKGRFTISRDNAKNSVYLQMNSLKPEDTAVYYCNRDARSGFVTIYATDYDYWGQGTQVTVSS

>  <ATTRIBUTE_MEASURED>
polyreactivity (PSR sort gate)

>  <OBSERVED_VALUE>
low polyreactivity

$$$$
>  <MONOMER_SEQUENCE>
QVQLVESGGGLVQAGGSLRLSCAASGSTFTPYAMGWYRQAPGKERELVAAITWRTGSTRYADSVKGRFTISRDNAKNTVYLQMNSLKPEDTAVYYCAAKVTRFGAPGVNYWGQGTKVTVSS

>  <ATTRIBUTE_MEASURED>
polyreactivity (PSR sort gate)

>  <OBSERVED_VALUE>
high polyreactivity

$$$$
>  <MONOMER_SEQUENCE>
QVQLVESGGGLVQAGGSLRLSCAASGSTFSRNAMGWYRQAPGKERELVASITRGGSTYADSVKGRFTISRDNAKNTVYLQMNSLKPEDTAVYYCAKSVTGWRGLWYTPRNYYWGQGTQVTVSS

>  <ATTRIBUTE_MEASURED>
polyreactivity (PSR sort gate)

>  <OBSERVED_VALUE>
high polyreactivity

$$$$
>  <MONOMER_SEQUENCE>
QVQLVESGGGLVQSGGSLRLSCAASGLTFKENVMGWYRQAPGKERELVAAISTGASTYYADSVKGRFTISRDNAKNTVYLQMNSLKPEDTAVYYCAKRVTRWYGYWGQGTQVTVSS

>  <ATTRIBUTE_MEASURED>
polyreactivity (PSR sort gate)

>  <OBSERVED_VALUE>
high polyreactivity

$$$$
>  <MONOMER_SEQUENCE>
QVQLVESGGGLVQAGGSIRLSCAASGSTFAKNAMGWYRQAPGKERELVAAISRGGNTYYADSGKGRFTISRDNAKNTVYLQMNSLKPEDTAVYYCSKLPFTRTYLGSLYDYWGQGTQVTVSS

>  <ATTRIBUTE_MEASURED>
polyreactivity (PSR sort gate)

>  <OBSERVED_VALUE>
high polyreactivity

$$$$
>  <MONOMER_SEQUENCE>
QVQLVESVGGLVQAGGSLRLSCAASGYIFGYNAMGWYRQAPGKERELVAAISRSAGRTYYADSVKGRFTISRDNAKNTVYLQMNSLKPEDTAVYYCAAQSYWLGYEYWGQGTQVTVSS

>  <ATTRIBUTE_MEASURED>
polyreactivity (PSR sort gate)

>  <OBSERVED_VALUE>
high polyreactivity

$$$$
